study.target: T1, human Claudin 1 with C-terminal FLAG tag (human, UniProt O95832 1-211)
T1 construct: whole, on cells; forced expression in Ba/F3 cells; also called hCLDN1; hCLN1
T1 sequence (looked up): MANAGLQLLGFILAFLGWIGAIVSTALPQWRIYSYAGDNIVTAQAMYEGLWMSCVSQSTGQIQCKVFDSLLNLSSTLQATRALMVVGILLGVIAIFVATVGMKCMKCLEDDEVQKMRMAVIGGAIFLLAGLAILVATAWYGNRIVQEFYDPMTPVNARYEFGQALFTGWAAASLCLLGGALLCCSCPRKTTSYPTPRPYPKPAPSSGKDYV
method: flow cytometry, hCLDN1/Ba/F3 cells, 2 ug/mL antibody
measured.quantity: X geometric mean
// response body must contain only the number

Check out these entries, answers already filled in.
- binder: "CDN27 (antibody, V domains shown, mouse monoclonal, IgG2a/IgK) VH: EVQLQQSGPELVKPGASVKISCKASGYSFTGYFMNWVKQSHGKSLEWIGRINPYNGDTFYNQKFKGKATLTVDKSSSTAHMELRSLTSEDSAVYYCARSGDWYFDVWGAGTTVTVSS VL: DIVLTQSPASLAVSLGQRATISCRASKSVSTSSYSYMHWYQQKPGQPPKLLIKFASYLESGVPARFSGSGSGTDFTLNIHPVEEEDAATYYCQHSREFPRTFGGGTKLEIKR"
  X geometric mean: 42
- binder: "CDN28 (antibody, mouse IgG1, kappa, V domains shown, mouse monoclonal, IgG1/IgK) VH: EVQLQQSGPELVKPGASVKISCKASGYSFTGYFMNWVKQSHGKSLEWLGRINPYNGDTFYNQKFKGKATLTVDKSSNTAHMELRSLTSEDSAVYYCARGDGYYVTSLAYWGQGTLVTVSA VL: NIVMTQSPKSMSMSVGERVTLSCKASENVVSYVSWFQQKPEQSPKLLIYGASNRYTGVPDRFTGSGSATDFTLTISSVQAEDLADYYCGQSYSYPLTFGAGTKLELKR"
  X geometric mean: 12

Now, please, on to the next binder.
Task: Name the reported X geometric mean value associated with the binder CDN38 (antibody, V domains shown) VH: EVQLQQSGPELVKPGASVKMSCKASGYSFTGYFMNWVKQSHGKSLEWIGRINPYNGDTFYNQKFKGKATLTVDKSSSTAHMELRSLTSEDSALYYCARSGNYVMDYWGQGTSVTVSS VL: DIVLTQSPASLAVSLGQSVTISCRASESVEYYGTSLMQWYQQKPGQPPKLLIYGASNVESGVPARFSGSGSGTDFSLNIHPVEEDDIAMYFCQQSRKVPWTFGGGTKLEIKR
Result: 7
